// provenance: patent US11530210B2

# SUBJECT OF TEST: human GluN1/GluN2B NMDA receptors (Homo sapiens, UniProt Q13224)
# Sequence (Q13224 27-1484, other chains not shown): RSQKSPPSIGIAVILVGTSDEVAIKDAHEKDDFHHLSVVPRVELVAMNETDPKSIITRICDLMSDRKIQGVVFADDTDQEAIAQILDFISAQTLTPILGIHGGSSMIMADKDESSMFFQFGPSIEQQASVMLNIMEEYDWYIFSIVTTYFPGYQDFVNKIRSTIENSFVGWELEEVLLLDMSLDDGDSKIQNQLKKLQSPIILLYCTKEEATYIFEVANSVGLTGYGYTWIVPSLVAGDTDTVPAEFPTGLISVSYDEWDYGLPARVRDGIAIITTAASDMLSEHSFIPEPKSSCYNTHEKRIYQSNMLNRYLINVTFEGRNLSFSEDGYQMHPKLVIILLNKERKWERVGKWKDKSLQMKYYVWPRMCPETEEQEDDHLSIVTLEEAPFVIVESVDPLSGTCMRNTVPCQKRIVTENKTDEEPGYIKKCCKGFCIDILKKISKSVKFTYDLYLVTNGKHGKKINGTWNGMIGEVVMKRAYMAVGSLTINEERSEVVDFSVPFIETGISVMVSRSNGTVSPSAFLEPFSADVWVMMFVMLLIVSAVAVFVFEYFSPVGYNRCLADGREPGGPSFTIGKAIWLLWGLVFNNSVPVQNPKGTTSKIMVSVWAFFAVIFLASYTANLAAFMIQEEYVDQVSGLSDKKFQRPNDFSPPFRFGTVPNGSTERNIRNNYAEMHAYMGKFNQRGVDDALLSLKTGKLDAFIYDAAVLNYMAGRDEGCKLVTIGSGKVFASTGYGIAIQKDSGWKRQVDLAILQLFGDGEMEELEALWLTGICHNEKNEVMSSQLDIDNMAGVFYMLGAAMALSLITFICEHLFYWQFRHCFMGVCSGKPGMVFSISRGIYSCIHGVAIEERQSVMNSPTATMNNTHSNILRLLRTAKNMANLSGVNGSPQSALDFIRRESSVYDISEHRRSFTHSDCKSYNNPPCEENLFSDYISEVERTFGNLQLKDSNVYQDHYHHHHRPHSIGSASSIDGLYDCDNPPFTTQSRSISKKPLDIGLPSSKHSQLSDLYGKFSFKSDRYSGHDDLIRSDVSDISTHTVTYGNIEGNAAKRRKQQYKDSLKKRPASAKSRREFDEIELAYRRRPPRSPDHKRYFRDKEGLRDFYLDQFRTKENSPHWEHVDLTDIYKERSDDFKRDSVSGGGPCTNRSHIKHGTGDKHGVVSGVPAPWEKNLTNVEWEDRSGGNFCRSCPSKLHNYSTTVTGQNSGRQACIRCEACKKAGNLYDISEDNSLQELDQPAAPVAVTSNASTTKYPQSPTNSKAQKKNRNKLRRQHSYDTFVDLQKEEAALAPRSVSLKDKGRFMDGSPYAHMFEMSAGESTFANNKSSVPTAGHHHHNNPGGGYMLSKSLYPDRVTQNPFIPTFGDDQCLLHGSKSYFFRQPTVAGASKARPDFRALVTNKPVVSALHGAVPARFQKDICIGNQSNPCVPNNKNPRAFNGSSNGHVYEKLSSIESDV
# ASSAY REMARKS: Calcium flux (FLIPR) assay on cloned human NR1/GluN2B ion channels expressed in mammalian cells (standard and HTS variants)
# TEST CONDITIONS: cells expressing human GluN1/GluN2B, glutamate and glycine co-agonists
pIC50: −log10 of the molar value.
Where pIC50 equals or exceeds 7, the correct label is Criterion met; where it does not, the label is Criterion not met.

Check out these entries, answers already filled in.
CNc1nnc(Cn2ncc3ncc(-c4ccc(F)c(OC(F)F)c4)cc32)s1	Criterion not met
Fc1ccc(-c2cnc3cnn(Cc4nnc(C(F)F)s4)c3c2)cc1C(F)F	Criterion met
Fc1ccc(-c2cnc3cnn(Cc4cnccn4)c3c2)cc1C(F)F	Criterion met
Cc1noc(Cn2ncc3ncc(-c4cccc(C(F)(F)F)c4F)cc32)n1	Criterion not met
Fc1cc(-c2cnc3cnn(Cc4cccnn4)c3c2)cc(F)c1F	Criterion not met

Determine whether measured pIC50 meets or exceeds 7 for `Cc1cc(Cn2ncc3ncc(-c4cccc(C(F)(F)F)c4)cc32)n(C)n1`
Criterion not met

Now the same for `Cc1nnc(Cn2ncc3ncc(-c4ccc(F)c(C(F)F)c4)cc32)o1`
Criterion met
